Molecular target: T1, cynomolgus αVβ6 on cells (cynomolgus)
T1 construct: whole, on cells; also called macaque αVβ6; Mac AVB6
Assay: FACS, supernatant, HEK-293 cells transfected with cynomolgus αV and β6
attribute.measured: Mac AVB6 % Cells Shifted (%)
State the answer as a number, implicitly in %.

Query: Which Mac AVB6 % Cells Shifted is listed for sc 161 (antibody, V domains shown, Fully human XenoMouse mAb) VH: EVQLVQSGAEVKKPGESLKISCKGSGYSFTSYWIGWVRQMPGKGLEWMGIIYPGDSDTRYSPSFQGQVTISADKSISTAYLQWSSLKASDTAMYYCARHGIAAAGFYYYYMDVWGQGTTVTVSS VL: EIVLTQSPDTLSLSPGERASLSCRASQNVNRNYLVWYQQKPGQAPRLLIYGTSNRATGIPDRFSGSGSGTDFTLTISRLEPEDFAVYYCQQCGSLPFTFGPGTKVDIKR ?
Reply: 14

Source of measurements: patent US20150166663A1
